Assay: Nrf2 qHTS screen for inhibitors: Validation (AID 493153)
Conditions: A549 ARE-Fluc reporter, 18-24 h; measured here: cytotoxicity max response
Results filed as inconclusive are left out.
parameter-measured: viability change (%)
Answers are plain numbers, in %.

{"columns": ["molecule", "parameter-measured", "unit-text", "numeric-value"],
 "data": [
  ["OCC1NCC(O)C(O)C1O (centres undefined)", "viability change", "%", -2.29],
  ["Nc1nc2c(cnn2CCc2ccccc2)c2nc(-c3ccco3)nn12", "viability change", "%", -1.96],
  ["Cc1nc2n(c(=O)c1CCN1CCC(c3noc4cc(F)ccc34)CC1)CCCC2O (centres undefined)", "viability change", "%", 3.12]
]}

Hi there! I need viability change for each item below, if you can.
1. COc1ccc(CCn2nnnc2C2(c3ccc(C)cc3)CC2)cc1
2. N=S(=O)(O)Cc1noc2ccccc12
3. N[C@H](C(=O)O)[C@H](Cc1ccccc1)C(=O)O
4. O=C(N[C@@H](Cc1ccccc1)C(=O)CCl)OCc1ccccc1

[2.86, 0.163, -3.91, -11.4]

For each of the molecules below, note its viability change.
1. Nc1ccc(-c2nc3ccc(-c4nc5ccc(N)cc5[nH]4)cc3[nH]2)cc1
2. Cc1cccc(C2CN(C)CCc3c2cc(O)c(O)c3Cl)c1 (centres undefined)
3. O=c1onc2n1-c1cc(Br)ccc1OC2

[-10.2, -5.5, -3.61]

----------
Assay: Natriuretic polypeptide receptor (hNpr1) antagonism - Pilot counterscreen GloSensor control cell line (AID 1347045)
Conditions: HEK293 cGMP GloSensor cells, SNP-stimulated luminescence, 20 min; series mostly up to 38.3 µM
Inconclusive results are not listed. Activity calls are given as the source filed them. The call rests on the fitted dose curve.
Permitted responses: active, inactive

Worked examples follow.
{"columns": ["molecule", "discrete-label"],
 "data": [
  ["O=C(O)c1ccccc1Nc1ccccc1", "inactive"],
  ["O=c1[nH]ccc2c(O)cccc12", "inactive"],
  ["O=c1onc2n1-c1cc(Br)ccc1OC2", "active"]
]}

Next, consider the following molecule.
Give the logged outcome of this assay for the following molecule: CCCCS(=N)(=O)CC[C@H](N)C(=O)O (stereo partly drawn) inactive

----------
Test system: Zika virus NS2B-NS3 protease (unlinked)
Assay: Optimization of GU AMC qHTS for Zika virus inhibitors: Unlinked NS2B-NS3 protease assay (AID 1347151); note: nearly all actives have a fitted effect of over 80% in size
Settings: recombinant ZIKV NS2B-NS3 protease, fluorogenic AMC substrate; series mostly up to 52.5 µM
Inconclusive results are not listed. Active and inactive are the calls of the source. Calls follow the shape of the dose curve; as a rule, active = well fitted inhibition curve with a large enough effect; inconclusive = small, poorly fitted or top-dose-only effect; inactive = no such curve, though single readings can be large or run the other way.
Give your call using only these classes: class 1 for active, class 0 for inactive

Before answering, review these 5 worked examples.
{"columns": ["input-smiles", "discrete-label"],
 "data": [
  ["COc1ccc(CCn2nnnc2C2(c3ccc(C)cc3)CC2)cc1", "class 0"],
  ["CC(=O)NNC(=O)N1Cc2ccccc2Oc2ccc(Cl)cc21", "class 0"],
  ["N[C@@H](Cc1ccc(O)c(I)c1)C(=O)O", "class 0"],
  ["NCCCCN", "class 0"],
  ["COc1ccc2c(c1)c(CC(=O)O)c(C)n2C(=O)c1ccccc1", "class 0"]
]}

Let's switch to this molecule now.
How was CCCCCCCCCCCCCCSCC(=O)O classified in this test? class 1

----------
Target: Glucagon-like peptide 1 receptor (Homo sapiens)
Test: qHTS of GLP-1 Receptor Agonists: LOPAC Validation (AID 624148);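 note: luminescence from a luciferase reporter switched on by cAMP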
Settings: GLP-1R agonist cell assay; series mostly up to 46.1 µM
Results filed as inconclusive are left out. Calls of active or inactive are those of the source. Calls follow the shape of the dose curve; as a rule, active = well fitted curve in the direction sought with a large enough effect; inconclusive = small, poorly fitted or top-dose-only effect, or another doubt; inactive = no such curve, though single readings can be large or run the other way.
Select the matching outcome among class 1 for active, class 0 for inactive

Consider the worked cases shown below.
{"columns": ["compound", "discrete-label"],
 "data": [
  ["N=S(=O)(O)Cc1noc2ccccc12", "class 0"],
  ["O[Si](CCCN1CCCCC1)(c1ccc(F)cc1)C1CCCCC1 (centres undefined)", "class 0"],
  ["C=CC1(C)CC(=O)C2(O)C(C)(O1)C(OC(C)=O)C(O)C1C(C)(C)CCC(O)C12C (centres undefined)", "class 1"],
  ["Cc1cccc(C)c1OCC(N)C(C)C (centres undefined)", "class 0"],
  ["O=C(O)C1=CCNCC1", "class 0"],
  ["CCC1(O)CC2CN(CCc3c([nH]c4ccccc34)[C@@](C(=O)OC)(c3cc4c(cc3OC)N(C=O)C3[C@]45CCN4CC=C[C@@](CC)([C@@H](OC(C)=O)[C@]3(O)C(=O)OC)[C@H]45)C2)C1 (some centres undefined)", "class 0"],
  ["CN1C2CCC1CC(OC(c1ccccc1)c1ccccc1)C2 (centres undefined)", "class 0"],
  ["Oc1ccc(Cn2cc[nH]c2=S)cc1", "class 0"],
  ["Brc1c(Br)c(Br)c2[nH]cnc2c1Br", "class 0"],
  ["OC[C@H]1O[C@H](n2cnc3c(N[C@H]4CCC[C@@H]4O)ncnc32)[C@H](O)[C@@H]1O", "class 0"]
]}

Could you check what this test reported for CCN1C(=O)C=CC1=O ? class 0

// param item: CN1CCCC1CCOC(C)(c1ccccc1)c1ccc(Cl)cc1 (centres undefined) ; yields the recorded call class 0

For this compound, state the assay outcome: CN1CCN(c2nc3cc(C(F)(F)F)ccc3n3cccc23)CC1 class 0

For N[C@H](C(=O)O)c1cc(O)cc(O)c1 , what call appears in the results of this test? class 0

Per the records of this test, what outcome belongs to CC(=O)/C(C)=N/O ? class 0

Hey, what did the test say about C[C@@]1(C2CCCC2)Cc2cc(OCC(=O)O)c(Cl)c(Cl)c2C1=O ? class 0

I'd appreciate the recorded outcome for Cc1cccc(C(=O)NCN2CCN(c3ccccc3C#N)CC2)c1 from this test. class 0

Dear all, I need the recorded test outcome for CC(=O)[C@H]1CCC2C3CC=C4C[C@@H](OS(=O)(=O)O)CC[C@]4(C)C3CC[C@@]21C (some centres undefined) , thank you. class 0

What classification did O=c1cc(-c2ccccc2F)[nH]c2cc3c(cc12)OCO3 end up with in this test? class 0

Identify the outcome logged in this assay for the compound shown: O=c1cc(O)cc(/C=C/c2ccc(O)c(O)c2)o1 class 0

Per the records of this test, what outcome belongs to Cc1nc(N=Nc2ccc(S(=O)(=O)O)cc2S(=O)(=O)O)c(COP(=O)(O)O)c(C=O)c1O ? class 0

Hey, what did the test say about NC(=O)c1cc[n+](CC2=C(C(=O)O)N3C(=O)[C@@H](NC(=O)[C@@H](c4ccccc4)S(=O)(=O)[O-])[C@H]3SC2)cc1 ? class 0

Recorded call for Oc1cc2c(cc1O)C(c1ccccc1)CNCC2 (centres undefined) ? class 0

Record request — test call for CNC(=O)c1cc2c(cn1)[nH]c1ccccc12 class 0

Write down the call the test reported for this compound. Item: CC(C)(C)NCC(O)COc1cccc2[nH]c(=O)[nH]c12 (centres undefined) class 0

Outcome? COc1ccc(-c2cc3ncc(C)n3c(Nc3ncccc3C(N)=O)n2)cc1OC class 0

What classification did COc1cccc(OC)c1OCCNCC1CSc2ccccc2O1 (centres undefined) end up with in this test? class 0

What did the test return for NC(Cc1cccc(-c2ccccc2CP(=O)(O)O)c1)C(=O)O (centres undefined) ? class 0

The reported measurements were obtained from PubChem BioAssay (NCATS).
